Target: Homeobox protein Hox-A13 (Mus musculus) (UniProt Q62424)
Sequence (Q62424 whole entry, looked up): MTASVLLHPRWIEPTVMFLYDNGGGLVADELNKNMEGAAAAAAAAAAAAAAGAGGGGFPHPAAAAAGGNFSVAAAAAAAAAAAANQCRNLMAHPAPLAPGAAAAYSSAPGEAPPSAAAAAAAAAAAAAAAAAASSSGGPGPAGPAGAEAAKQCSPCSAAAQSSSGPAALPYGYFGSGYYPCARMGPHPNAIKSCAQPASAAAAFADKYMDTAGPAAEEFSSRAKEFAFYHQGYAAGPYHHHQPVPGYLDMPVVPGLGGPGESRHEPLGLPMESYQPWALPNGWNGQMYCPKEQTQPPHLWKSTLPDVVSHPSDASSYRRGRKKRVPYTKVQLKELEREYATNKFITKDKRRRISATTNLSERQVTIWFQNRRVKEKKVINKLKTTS
Assay: disruptors of Hoxa13 oligonucleotide interaction – biochemical, fluorescence polarization, labeled oligonucleotide, primary screen (AID 1185)
Settings: Hoxa13:DNA binding, 15 min, higher = more signal, called active from +8 up or from −8 down
measured_attribute: z-score
Numbers only.

Solved cases below.
In [3]: df
Out[3]:
                                   molecule  meas_value
0  [N-]=[N+]=NCc1ccccc1C[C@]1(C(N)=O)N=C(c2ccc(OCCCO)cc2)O[C@H]1c1ccccc1N=[N+]=[N-]        -4.7
1  COC(=O)[C@@]1(Cc2ccccc2)[C@H]2c3cc(C(=O)N(C)C)n(Cc4cc(F)c(F)c(F)c4)c3C[C@H]2CN1C(=O)c1ccccc1          -4

# map each molecule to its z-score
1. COCCOC(=O)N1C(=O)[C@@]2(c3ccccc31)[C@H](c1ccc(O)cc1)N1[C@H](c3ccccc3)[C@H](c3ccccc3)OC(=O)[C@H]1[C@@H]2C(N)=O
2. CC(C)(C)OC(=O)CC[C@@]1(C(=O)NCC(O)CO)N=C(c2ccc(OCCCO)cc2)O[C@@H]1c1ccccc1 (some centres undefined)

A:
1: -5.26; 2: -4.48

---

Task for the reader: assign each of the following compounds its reported composite z-score.
Molecular target: Left-right determination factor 2 (Homo sapiens) (UniProt O00292)
Sequence (O00292 whole entry, looked up): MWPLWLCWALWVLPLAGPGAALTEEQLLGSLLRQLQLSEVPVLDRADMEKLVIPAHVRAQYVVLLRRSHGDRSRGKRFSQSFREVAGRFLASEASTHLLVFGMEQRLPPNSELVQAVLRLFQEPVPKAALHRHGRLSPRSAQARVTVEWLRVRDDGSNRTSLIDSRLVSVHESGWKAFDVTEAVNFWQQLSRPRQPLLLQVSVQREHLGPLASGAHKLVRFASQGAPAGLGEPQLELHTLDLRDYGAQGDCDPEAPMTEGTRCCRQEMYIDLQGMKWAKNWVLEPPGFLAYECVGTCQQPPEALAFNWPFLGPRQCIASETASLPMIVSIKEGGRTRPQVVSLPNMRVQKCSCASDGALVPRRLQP
Assay: small molecules binding LEFTY2 protein – biochemical, small-molecule microarray, 635 nm fluorescence scan, primary screen (AID 1110)
Conditions: higher = more signal
Answers are plain numbers.

Solved cases below.
In [3]: df
Out[3]:
                                   compound  measured_attribute  meas_value
0  C=C(/C(=C/C[C@@H](OC(C)=O)c1ccc(CO)o1)c1cnc2ccccc2c1)C(C)C   composite z-score        1.06
1  C[C@]1(C(=O)NCC(F)(F)F)c2ccccc2C(=O)N(Cc2cc(F)cc(C(F)(F)F)c2)[C@H]1c1ccc(CO)cc1   composite z-score      -0.977
2  O=C1OCCC=C[C@H]2OC34C=CCN(CCN5CCOCC5)C(=O)[C@H]3N(CCO)C(=O)[C@@H]4C12 (some centres undefined)   composite z-score       0.601

Moving on to the next compound.
Sample CC1CC/C=C\[C@H]2OC34C=CCN(c5ccc6ccccc6c5)C(=O)[C@H]3N(CCCCCO)C(=O)[C@@H]4C2C(=O)O1 (some centres undefined) ; composite z-score observed: -1.64

---

Test: blockers of DNA damage checkpoint Chk1 activation – imaging, HeLa, hydroxyurea, phospho-Chk1 antibody, percent positive cells, primary screen (AID 1186)
Conditions: hydroxyurea-induced phospho-Chk1 immunofluorescence imaging, higher = more signal
measured_attribute: z-score
Numbers only.

Solved cases below.
compound	measured_attribute	meas_value
COc1ccc(C#Cc2ccc3c(c2)[C@]2(C(=O)N3)[C@H](C(=O)N3CCc4cc(OC)c(OC)cc4C3)[C@H]3C(=O)O[C@H](c4ccccc4)[C@H](c4ccccc4)N3[C@@H]2c2ccc(OCCO)cc2)cc1	z-score	-0.122
COC(=O)[C@@]1(Cc2ccc(F)cc2)[C@H]2c3cc(C(=O)N4CCCC4)n(Cc4ccc(Cl)c(C(F)(F)F)c4)c3C[C@H]2CN1C(=O)c1ccccc1	z-score	0.612
CCOC(=O)C[C@H]1[C@H](OC(=O)c2cc3ccccc3oc2=O)[C@@H](NC(=O)c2ccc3ccccc3c2)c2cc(OCCCO)ccc2N1C(=O)c1ccccc1	z-score	0.371
O=c1cccc(-c2ccccc2)o1	z-score	0.403
COC(=O)[C@@]1(Cc2ccc(F)cc2)[C@H]2c3cc(C(=O)N(C)C)n(CCCNc4ccc(C(F)(F)F)cc4Cl)c3C[C@H]2CN1C(=O)c1ccccc1	z-score	0.456
C=CCN1C(=O)[C@@]2(O[C@@H](CCO)[C@H]([Si](C)(C)c3ccc(OC)cc3)[C@H]2C)c2cc(N3C(=O)COc4ccccc43)ccc21	z-score	-1.39

Moving on to the next compound.
Sample CCCCN1CC=CC23O[C@@H]4/C=C\CCCOC(=O)C4[C@H]2C(=O)N(C(C)CO)[C@@H]3C1=O (some centres not stated) ; z-score observed: 0.166

---

Assay: probe aLefty2 binding to arrayed compounds – biochemical, biotinylated probe, 635/667 nm fluorescence, primary screen (AID 1094);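 further: score merges spot fluorescence near 667 nm with spot signal-to-noise ratio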
Details: small-molecule microarray, higher = more signal
Definition: the class of an entry is the range in 1 (below -0.06), 2 (-0.06 to below 0.2), 3 (0.2 or more) that contains its composite z-score.

Reference set (10 entries):
compound	class
COCC1C2CC[C@H]3C(OCc4ccc(F)cc4C(F)(F)F)OC[C@]4(C)[C@H]3C2=C(CN4C(=O)OC(C)(C)C)[C@H](C)C1COC (some centres undefined)	3
CC(C)(C)OC(=O)CC[C@]1(C(=O)NCC(O)CO)N=C(c2ccc(OCCCO)cc2)O[C@H]1c1ccccc1CN=[N+]=[N-] (some centres undefined)	3
CCCC[C@H]1OB(O)C[C@H]2C1=C(C)Cn1c(=O)n(-c3ccccc3)c(=O)n12	1
CO[C@H]1O[C@H](CO)[C@@H](OC(=O)Nc2ccc3c(c2)OCO3)[C@H](OC(=O)Nc2ccc3c(c2)OCO3)[C@H]1OC(=O)Nc1ccc2c(c1)OCO2	2
Cc1ccc(S[C@]2(C(=O)NCC(F)(F)F)CC(=O)N(C3Cc4ccccc4C3)[C@@H]2c2ccc(CO)cc2I)cc1	2
O=C(NCC(O)CO)[C@@]1(Cc2ccccc2)COC(c2ccc(OCCCO)cc2)=N1 (some centres undefined)	1
[N-]=[N+]=NCc1ccccc1C[C@]1(C(=O)N2CCOCC2)N=C(c2ccc(OCCCO)cc2)O[C@H]1c1ccccc1	1
COC(=O)[C@@]1(Cc2ccc(F)cc2)[C@H]2c3cc(C(=O)N(C)C)n(CCc4c[nH]c5ccc(OC)cc45)c3C[C@H]2CN1C(=O)c1ccccc1	3
COc1cc(CO)cc(I)c1O[C@H]1C=C(C(=O)NCCO)C[C@@H](N(CCc2cccc(F)c2)C(=O)CCC2CCCC2)[C@@H]1O	1
O=[N+]([O-])c1ccc(C[n+]2ccc(CCCO)cc2)o1	3

Q: Which bin, given its composite z-score, does `COC(=O)[C@@]1(Cc2ccc(OC)cc2)[C@H]2c3cc(C(=O)N(C)C)n(Cc4ccc(OC)c(OC)c4)c3C[C@H]2CN1C(=O)c1ccccc1` occupy?
A: 3

Q: Which bin, given its composite z-score, does `C[N+](C)(C)CCCC[C@@H]1NC(=O)[C@@H]2C[C@H](C(=O)NCCCCCCNC(=O)CS)[C@H](c3cccc(OCCO)c3)N2C1=O` occupy?
A: 1

Q: Which bin, given its composite z-score, does `COc1ccc(C#Cc2ccc3c(c2)[C@]2(C(=O)N3)[C@H](c3ccc(OCCO)cc3)N3[C@H](c4ccccc4)[C@H](c4ccccc4)OC(=O)[C@H]3[C@@H]2C(=O)Nc2nc3ccccc3s2)cc1` occupy?
A: 2

Q: Which bin, given its composite z-score, does `CC(=O)NCCCC[C@@H]1NC(=O)[C@@H]2C[C@H](C(=O)NCCCCCC[N+](C)(C)C)[C@H](c3cccc(OCCO)c3)N2C1=O` occupy?
A: 2

---

Task for the reader: assign each of the following molecules its reported composite z-score.
Biological target: Neurogenic locus notch homolog protein 3 (Homo sapiens)
Test: small molecules binding NOTCH3 protein – biochemical, 635/667 nm fluorescence, primary screen (AID 1096)
Conditions: small-molecule microarray, 635 nm fluorescence, higher = more signal

molecule	study_system	measured_attribute	meas_value
O=C1OCCC=C[C@H]2OC34C=CCN(c5ccc6ccccc6c5)C(=O)[C@H]3N(CCCCCCO)C(=O)[C@@H]4C12 (stereo not given in full)	Neurogenic locus notch homolog protein 3 (Homo sapiens)	composite z-score	-0.228

# map each molecule to its composite z-score
1. C=C[C@H](C)[C@H](OC(=O)Nc1ccc(OC)cc1)c1ccc(O)c2ccccc12
2. CC(C)OC(=O)C1=CCC(c2cccc(Cl)c2)O1 (stereo not given)
3. O=C(NCCN1CCOCC1)[C@@H]1c2ccccc2C(=O)N(Cc2cc(F)cc(C(F)(F)F)c2)[C@H]1c1ccc(CO)cc1
4. Cc1ccc(S[C@]2(C(=O)NCC(C)C)CC(=O)N(Cc3ccccc3)[C@@H]2c2ccc(CO)cc2)cc1
5. CC(C)C(O)C1C=CC2C(=O)N(C)C(=O)C2N1N1CCCCC1 (stereo not given)
6. Cc1ccc(S[C@]2(C(=O)NCCCN(C)C)CC(=O)N(Cc3ccccc3)[C@@H]2c2ccc(CO)cc2)cc1

A:
1: 0.0103; 2: -0.129; 3: 0.58; 4: -0.331; 5: 0.217; 6: -0.631

# map each molecule to its composite z-score
1. COc1ccc(C#Cc2ccc3c(c2)[C@]2(C(=O)N3)[C@H](C(=O)N3CCN(c4ncccn4)CC3)[C@H]3C(=O)O[C@H](c4ccccc4)[C@H](c4ccccc4)N3[C@@H]2c2ccc(O)cc2)cc1
2. CC(C)(C)OC(=O)CC[C@@]1(C(=O)NCC(O)CO)N=C(c2ccc(OCCCO)cc2)O[C@@H]1c1ccccc1 (stereo not given in full)
3. O=C(NCc1ccccc1)[C@@H]1c2ccccc2C(=O)N(Cc2cc(F)cc(C(F)(F)F)c2)[C@H]1c1ccc(CO)cc1
4. CC[C@@H]1C=C(C(=O)O)[C@H](c2ccc(C(C)C)cc2)N1S(=O)(=O)c1ccc(C)cc1
5. C=CCOC(=O)[C@H]1[C@@H]2C(=O)O[C@@H](c3ccccc3)[C@@H](c3ccccc3)N2[C@@H](c2ccc(OCCOC(=O)[C@@H]3C[C@@H]4C(=O)NCC(=O)N4[C@@H]3c3ccc(O)cc3)cc2)[C@]12C(=O)Nc1ccc(I)cc12
6. COC(=O)[C@@]1(Cc2ccc(OC)cc2)[C@H]2c3cc(C(=O)N(C)C)n(Cc4ccc(OC)c(OC)c4)c3C[C@H]2CN1C(=O)c1ccccc1

A:
1. 0.853
2. 0.356
3. 0.791
4. 1.03
5. 1.11
6. 1.03

# map each molecule to its composite z-score
1. [N-]=[N+]=NCc1ccccc1[C@H]1OC(c2ccc(OCCCO)cc2)=N[C@@]1(Cc1ccccc1)C(=O)NCC(O)CO (stereo not given in full)
2. COCCn1c(C(=O)N2CCCC2)cc2c1C[C@H]1CN(C(=O)c3ccccc3)[C@@](Cc3ccc(OC)cc3)(C(=O)OC)[C@@H]21

A:
1: -0.046; 2: 1.1
